Every entry's value here was drawn from patent US20220184084A1.

- Test system: AtT20 cells
- testDescription: ACTH AlphaLISA assay, screen of kinase inhibitor library
- Assay type: cell-based, murine
- experimentalContext: Mus musculus, 72 h; 1 μM; AtT20 cells, 3 days; read-out: ACTH Inhibition (%)
Measured inhibition at 1 µM accompanies every entry in the list below.
Numbers only here, please. The scale is %.

Cc1nc(Nc2n[nH]c3c2CN(C(=O)N[C@H](CN(C)C)c2ccccc2)C3(C)C)c2sccc2n1    70.2

Query block: API: value(readout=inhibition at 1 µM, system=AtT20 cells) for record CCc1cnn2c(NCc3ccc[n+]([O-])c3)cc(N3CCCC[C@H]3CCO)nc12 [Dinaciclib (SCH727965)]
Result block: 77.3

Query block: How about COc1ccc(-c2ccc3ncc4c(c3c2)n(-c2ccc(N3CCNCC3)c(C(F)(F)F)c2)c(=O)n4C)cn1 ?
Result block: 86.3

Query block: And COc1ccc(-c2nc(N3CCOCC3)c3sc(CN(C)c4ncc(C(=O)NO)cn4)cc3n2)cn1 ?
Result block: 80.1
